Hello, the source for this data is patent US20150266925A1, in case you need it.

Target: T1, human IL-23 (human, UniProt Q9NPF7 20-189; P29460 23-328)
T1 construct: Bought recombinant heterodimeric cytokine (eBioscience 34-8239-85 for panning; R&D Systems for the splenocyte assay); also called hIL-23; hIL23
T1 sequence (looked up) 1: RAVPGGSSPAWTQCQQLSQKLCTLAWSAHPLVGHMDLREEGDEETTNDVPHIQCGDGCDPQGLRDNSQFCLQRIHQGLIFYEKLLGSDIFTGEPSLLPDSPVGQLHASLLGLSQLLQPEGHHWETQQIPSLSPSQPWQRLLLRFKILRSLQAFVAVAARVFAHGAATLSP
T1 sequence (looked up) 2: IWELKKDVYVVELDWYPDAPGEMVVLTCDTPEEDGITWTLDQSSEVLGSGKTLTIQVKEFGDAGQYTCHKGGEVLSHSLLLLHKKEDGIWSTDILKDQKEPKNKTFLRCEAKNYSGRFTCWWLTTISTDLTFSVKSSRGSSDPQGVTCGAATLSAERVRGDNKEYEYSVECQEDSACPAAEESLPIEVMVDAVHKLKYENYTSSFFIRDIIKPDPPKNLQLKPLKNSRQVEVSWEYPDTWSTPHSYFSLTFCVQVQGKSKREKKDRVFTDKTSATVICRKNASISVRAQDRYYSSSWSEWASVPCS
Assay: kinetic ELISA, soluble polypeptide
quantity: pKd
Scale explanation: pKd corresponds to minus log10 of a concentration expressed in moles per litre.

Quick one: pKd of MA23 (designed binder) MSIQQIQKEIANIQEVIAAIQKWIYLMTGGSGGSGGMSIEEIQKQIAAIQCQIAAIQKQIYAMTGSGGGGSGMSIEEIQKQIAAIQEQIVAIYKQIMAMPS ? 9.15
